Target: furin, P09958;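 further: purified furin at 1:10 enzyme:substrate in 50 mM HEPES pH 7.5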
Sequence (P09958 whole entry): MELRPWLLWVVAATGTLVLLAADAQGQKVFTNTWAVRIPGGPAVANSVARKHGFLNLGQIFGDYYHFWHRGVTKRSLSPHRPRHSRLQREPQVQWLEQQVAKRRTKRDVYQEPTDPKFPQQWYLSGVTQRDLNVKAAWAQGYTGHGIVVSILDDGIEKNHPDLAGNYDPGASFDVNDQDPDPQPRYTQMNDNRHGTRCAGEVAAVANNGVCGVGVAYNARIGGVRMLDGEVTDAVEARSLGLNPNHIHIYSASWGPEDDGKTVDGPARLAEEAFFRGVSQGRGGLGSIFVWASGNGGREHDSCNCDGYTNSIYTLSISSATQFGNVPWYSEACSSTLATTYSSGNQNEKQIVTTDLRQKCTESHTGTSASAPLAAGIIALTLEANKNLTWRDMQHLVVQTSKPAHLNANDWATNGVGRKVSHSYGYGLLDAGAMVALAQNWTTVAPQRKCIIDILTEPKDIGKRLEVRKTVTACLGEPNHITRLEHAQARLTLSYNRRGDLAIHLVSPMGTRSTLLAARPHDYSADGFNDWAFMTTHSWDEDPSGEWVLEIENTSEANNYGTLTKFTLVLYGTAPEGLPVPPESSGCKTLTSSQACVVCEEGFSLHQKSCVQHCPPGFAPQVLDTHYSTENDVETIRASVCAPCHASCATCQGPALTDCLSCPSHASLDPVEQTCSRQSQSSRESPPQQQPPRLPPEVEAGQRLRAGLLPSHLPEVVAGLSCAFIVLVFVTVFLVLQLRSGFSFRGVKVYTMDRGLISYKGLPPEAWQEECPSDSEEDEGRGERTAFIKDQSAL
Assay: furin cleavage Z-score vs untreated control; higher = more cleavage, active = 3.5 or more, inactive = 1 or less, 8 variable residues between constant flanks
Settings: 7.5 min
Some of the results follow. How many sequences the whole screen found active is unknown.
Outcomes: active, inactive

INSERT INTO results (residue_sequence, label) VALUES
  ('CARQKRSVENAGNASASA [FS-3038]', 'active'),
  ('CARQKRSDLYAGNASASA [FS-1966]', 'active'),
  ('CAWHSRRKRLAGNASASA [FS-210]', 'active'),
  ('CAKPARRKRLAGNASASA [FS-44]', 'active'),
  ('CARQYRSAYYAGNASASA [FS-2591]', 'inactive'),
  ('CAEEVSFRVGAGNASASA [HC1232]', 'inactive'),
  ('CAYPKRSSEVAGNASASA [FS-2323]', 'inactive'),
  ('CAGPIRRKRLAGNASASA [FS-1526]', 'active');
